Hey, just so you know, these numbers are from patent US20220033483A1.

system tested: T1, cTnI quality control product recombinant protein (human, UniProt P19429 1-210, limits assumed)
T1 construct: the assay paragraphs only say cTnI; also called cardiac troponin I; cTnI antigen
T1 sequence (P19429 whole entry): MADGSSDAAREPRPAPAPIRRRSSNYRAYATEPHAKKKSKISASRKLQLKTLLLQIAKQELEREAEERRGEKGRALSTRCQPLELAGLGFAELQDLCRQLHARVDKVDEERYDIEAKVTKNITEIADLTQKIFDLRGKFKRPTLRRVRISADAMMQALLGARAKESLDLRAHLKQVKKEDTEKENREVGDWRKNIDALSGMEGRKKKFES
assay summary: AMC biosensor, antibody on sensor
assay metric: koff (s⁻¹)
Output spec: scalar in s⁻¹, unitless text.

Completed entries (count: 5):
Anti-cTnI 7B9 monoclonal antibody (recombinant, Sample 1) (antibody, mouse IgG1, kappa, V domains shown, Recombinant mouse antibody expressed in CHO cells; also called WT; Anti-cTnI 7B9 antibody) VH: QVQLQQSGTELAKPGASVKFSCKASDYTFSTYWMYWIKQRPGQGLEWIGYLNPSSGHTEYNQRFKDKATLTADKSSSTAYMQLNSLTSEDSAVYYCARKYFGPFAMDYWGQGTSVTVSS VL: EIFLTQSPAIMSASPGEKVTMTCSASTTVSYAHWYQQKSGTSPKRWLYDSSKIASGIPVRFSGSGSGTSYSLTISSMEAEDAATYYCQNWSTQPYTFGGGTKLEIKR : 0.000368
Mutation 3 (antibody, V domains shown, other CDR sites as WT) VH: QVQLQQSGTELAKPGASVKFSCKASIYTFSTYWMYWIKQRPGQGLEWIGYLNPSSGHTGYNQRFKDKATLTADKSSSTAYMQLNSLTSEDSAVYYCARKYFGPFVMDYWGQGTSVTVSS VL: EIFLTQSPAIMSASPGEKVTMTCSASTTVSYIHWYQQKSGTSPKRWLYDTSKIASGIPVRFSGSGSGTSYSLTISSMEAEDAATYYCQRWSTQPYTFGGGTKLEIKR : 0.000481
Mutation 1 (antibody, V domains shown, other CDR sites as WT) VH: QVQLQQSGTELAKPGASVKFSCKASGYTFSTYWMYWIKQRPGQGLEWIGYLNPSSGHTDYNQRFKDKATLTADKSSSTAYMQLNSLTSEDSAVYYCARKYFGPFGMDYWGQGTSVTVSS VL: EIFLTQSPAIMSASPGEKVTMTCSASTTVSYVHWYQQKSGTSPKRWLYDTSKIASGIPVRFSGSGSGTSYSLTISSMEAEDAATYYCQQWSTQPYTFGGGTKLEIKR : 0.000263
Mutation 2 (antibody, V domains shown, other CDR sites as WT) VH: QVQLQQSGTELAKPGASVKFSCKASLYTFSTYWMYWIKQRPGQGLEWIGYLNPSSGHTEYNQRFKDKATLTADKSSSTAYMQLNSLTSEDSAVYYCARKYFGPFIMDYWGQGTSVTVSS VL: EIFLTQSPAIMSASPGEKVTMTCSASTTVSYAHWYQQKSGTSPKRWLYDTSKIASGIPVRFSGSGSGTSYSLTISSMEAEDAATYYCQVWSTQPYTFGGGTKLEIKR : 0.000434
Mutation 5 (antibody, V domains shown, other CDR sites as WT) VH: QVQLQQSGTELAKPGASVKFSCKASWYTFSTYWMYWIKQRPGQGLEWIGYLNPSSGHTVYNQRFKDKATLTADKSSSTAYMQLNSLTSEDSAVYYCARKYFGPFSMDYWGQGTSVTVSS VL: EIFLTQSPAIMSASPGEKVTMTCSASTTVSYSHWYQQKSGTSPKRWLYDYSKIASGIPVRFSGSGSGTSYSLTISSMEAEDAATYYCQEWSTQPYTFGGGTKLEIKR : 0.687

Now look at this one.
query: Request the reported koff associated with Mutation 4 (antibody, V domains shown, other CDR sites as WT) VH: QVQLQQSGTELAKPGASVKFSCKASNYTFSTYWMYWIKQRPGQGLEWIGYLNPSSGHTKYNQRFKDKATLTADKSSSTAYMQLNSLTSEDSAVYYCARKYFGPFNMDYWGQGTSVTVSS VL: EIFLTQSPAIMSASPGEKVTMTCSASTTVSYEHWYQQKSGTSPKRWLYDQSKIASGIPVRFSGSGSGTSYSLTISSMEAEDAATYYCQVWSTQPYTFGGGTKLEIKR
result: 0.0371
